Tested on: CAKI-2
Test: Antiproliferative activity against human CAKI-2 cells assessed as inhibition of cell growth
Type: functional, cell-based
TEST READOUT: IC50
Answer by giving the amount and then stating its unit.

Exam item: Any idea what its IC50 is? The molecule is `C[C@@H]1CC[C@H]2[C@@H](C)C(=O)O[C@@H]3O[C@@]4(C)CC[C@@H]1[C@]32OO4`
Marked response: 40 µM

* * *

System: ADR5000 cell line
Test: Antiproliferative activity against human CEM/ADR5000 cells assessed as reduction in cell viability incubated for 48 hrs by MTT assay
Assay type: functional, cell-based
Conditions: ADR5000, 48 h
TEST READOUT: pIC50
Reminder that pIC50 means the negative base-10 logarithm of the concentration expressed in mol/L.

Exam item: Param item = `COc1cccc2c1C(=O)c1c(O)c3c(c(O)c1C2=O)C[C@@](O)(C(=O)CO)C[C@@H]3O[C@H]1C[C@H](N)[C@H](O)[C@H](C)O1` ; retrieve measured pIC50.
Marked response: 8.05

The measured values listed here are drawn from ChEMBL document CHEMBL5257025.
